Data origin, for the record: ChEMBL document CHEMBL4837270

Catalogue of EC50 values
Assay: Anti-HIV activity against HIV1 3B infected in human PBMC assessed as inhibition of viral infection measured after 11 days by ELISA method
Format: functional, cell-based
Settings: Human immunodeficiency virus 1, 3B, 264 h
Give just the number in nM; leave the unit off.

Tell me EC50 reported for O=C(Nc1nc2ccc(C(F)(F)F)cc2s1)c1cnc(C(F)(F)F)s1
740

Tell me EC50 reported for Nc1nc(=O)n([C@@H]2CS[C@H](CO)O2)cc1F
5.5

Tell me EC50 reported for O=C(Nc1nc2c(Cl)cccc2s1)c1cnc(C(F)(F)F)s1
1930

---

Test: Therapeutic index, ratio of CC50 for human CEM-GXR cells infected with HIV1 443 harboring reverse transcriptase K103N/D67N/K70R/Y115F/Q151M/M184V/K219Q mutant to EC50 for HIV1 443 harboring reverse transcriptase K103N/D67N/K70R/Y115F/Q151M/M184V/K219Q mutant
Type: toxicity
Conditions: read-out: TI
endpointLabel: selectivity ratio
Answer with a number only.

>>> measuredvalue("O=C(Nc1nc2c(Cl)cccc2s1)c1cnc(C(F)(F)F)s1")
83

Tell me selectivity ratio reported for O=C(Nc1nc2ccc(C(F)(F)F)cc2s1)c1cnc(C(F)(F)F)s1
51

---

Tested on: Human immunodeficiency virus 1
Assay: Antiviral activity against antiretroviral-resistant HIV1 MVC-res harboring envelope V3 loop A19T/L20F/T22A/E25D/I26V mutant infected in human CEM-GXR cells assessed as inhibition of viral replication measured after 3 days by Flowcytometry assay
Assay type: functional, organism-based
endpointLabel: EC50 (nM)
Give just the number in nM; leave the unit off.

>>> measuredvalue("O=C(Nc1nc2ccc(C(F)(F)F)cc2s1)c1cnc(C(F)(F)F)s1")
220

Next molecule, please.
Tell me EC50 reported for O=C(Nc1nc2c(Cl)cccc2s1)c1cnc(C(F)(F)F)s1
970

---

Catalogue of CC50 at 72 h values
Experiment: Cytotoxicity against human CEM-GXR cells infected with wild type HIV1 443 harboring reverse transcriptase K103N/D67N/K70R/Y115F/Q151M/M184V/K219Q mutant assessed as cell viability measured after 72 hrs by Flow cytometry assay
Assay type: cell-based
Give just the number in µM; leave the unit off.

>>> measuredvalue("O=C(Nc1nc2ccc(C(F)(F)F)cc2s1)c1cnc(C(F)(F)F)s1")
12.1

Next molecule, please.
Tell me CC50 at 72 h reported for O=C(Nc1nc2c(Cl)cccc2s1)c1cnc(C(F)(F)F)s1
95.7
